ASSAYED SYSTEM: T1, biotinylated Fc-fused monkey CD137 (monkey, biotin on the AviTag)
T1 construct: also called cyCD137-Fc-BAP
T1 sequence (chain, as listed by the source limits assumed): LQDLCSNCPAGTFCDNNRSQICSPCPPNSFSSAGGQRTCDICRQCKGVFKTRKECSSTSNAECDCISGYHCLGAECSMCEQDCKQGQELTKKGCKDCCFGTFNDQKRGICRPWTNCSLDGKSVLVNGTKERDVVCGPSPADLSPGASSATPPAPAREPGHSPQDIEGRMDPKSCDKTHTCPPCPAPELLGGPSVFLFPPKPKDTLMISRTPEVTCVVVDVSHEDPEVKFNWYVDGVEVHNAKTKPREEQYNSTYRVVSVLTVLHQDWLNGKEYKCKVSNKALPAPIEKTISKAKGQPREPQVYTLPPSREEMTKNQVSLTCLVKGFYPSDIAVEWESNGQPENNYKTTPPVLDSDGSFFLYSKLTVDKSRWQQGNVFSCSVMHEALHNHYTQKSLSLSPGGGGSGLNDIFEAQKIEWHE
PROTOCOL NOTES: ELISA, 1 mM ADP, 0.625 ug/mL
Design: reference not given here
The entries below are paired with their reported absorbance ratio.
VALUE KIND: absorbance ratio

>  <BINDER>
dBBAT015-P253 (antibody, human IgG1, lambda, V domains shown) VH: EVQLVESGGDLVKPGGGLRLSCAASGFTFSTYTMNWVRQAPGKGLEWVSSISSRSTYATYADSVKGRFTISRDNAKNSLYLQMNSLRAEDTAVYYCARYGLKNSLNWVFDYWGQGTLVTVSS VL: QSALTQPPSASGSPGQTVTISCTGTSTDVGFYNYVSWYQQHPGKAPKLMIYEVSKKPSGVPDRFSGSKSGNTASLTVSGLQAEDEADYFCSTYSYDESVAFGGGTKLTVLG

>  <OBSERVED VALUE>
14.4

$$$$
>  <BINDER>
dBBAT119-P253 (antibody, human IgG1, lambda, V domains shown, also called dBBAT119H-P253/dBBAT119L-LamLib) VH: EVQLVESGGDLVKPGGGLRLSCAASGFTFSTFTMNWVRQAPGKGLEWVSSISSRSNYKSYADSVKGRFTISRDNAKNSLYLQMNSLRAEDTAVYYCARYGAKNFMNWVFDYWGQGTLVTVSS VL: QSALTQPPSASGSPGQTVTISCTGTSTDVGFYNYVSWYQQHPGKAPKLMIYYTSKRPSGVPDRFSGSKSGNTASLTVSGLQAEDEADYFCSSYRYDHQVSFGGGTKLTVLG

>  <OBSERVED VALUE>
57.2

$$$$
>  <BINDER>
dBBAT021-P253 (antibody, human IgG1, lambda, V domains shown) VH: EVQLVESGGDLVKPGGGLRLSCAASGFTFSSYTMNWVRQAPGKGLEWVSSISSRSNYRDYADSVKGRFTISRDNAKNSLYLQMNSLRAEDTAVYYCARYGGKNILNWVFDYWGQGTLVTVSS VL: QSALTQPPSASGSPGQTVTISCTGTSSDVGFYNYVSWYQQHPGKAPKLMIYEVSKRPSGVPDRFSGSKSGNTASLTVSGLQAEDEADYFCSSYSSDTHVGFGGGTKLTVLG

>  <OBSERVED VALUE>
4.6

$$$$
>  <BINDER>
dBBAT122-P253 (antibody, human IgG1, lambda, V domains shown) VH: EVQLVESGGDLVKPGGGLRLSCAASGFTFSTYTMNWVRQAPGKGLEWVSSISSRSNYKFYADSVKGRFTISRDNAKNSLYLQMNSLRAEDTAVYYCARFGGKNNMNWVFDYWGQGTLVTVSS VL: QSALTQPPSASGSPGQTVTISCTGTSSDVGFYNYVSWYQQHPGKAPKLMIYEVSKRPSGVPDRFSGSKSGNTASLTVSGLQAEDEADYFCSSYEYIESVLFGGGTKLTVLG

>  <OBSERVED VALUE>
5.7

$$$$
>  <BINDER>
dBBAT091-P253 (antibody, human IgG1, lambda, V domains shown) VH: EVQLVESGGDLVKPGGGLRLSCAASGFTFSSYTMNWVRQAPGKGLEWVSSISSRSNYIDYADSVKGRFTISRDNAKNSLYLQMNSLRAEDTAVYYCARFGKKNDMNWVFDYWGQGTLVTVSS VL: QSALTQPPSASGSPGQTVTISCTGTSTDVGFYNYVSWYQQHPGKAPKLMIYEGSKRPSGVPDRFSGSKSGNTASLTVSGLQAEDEADYFCSSYEYTESVLFGGGTKLTVLG

>  <OBSERVED VALUE>
1.7

$$$$
